Data credit: the supplement of paper PMC10899765

# 5+ nucleoli phenotype percent effect per entry
Tested on: MCF10A
Experiment: 5+ nucleoli phenotype percent effect (relative to siNT 0% and siKIF11 100%); higher = more cells with five or more nucleoli
Measurement parameters: 20 nM; 72 h
# value in %; strip the unit string

Sequence code: UAUACAAGGGCAAGCUCUCUGU [hsa-miR-381-3p]
Unit spec: %
5+ nucleoli phenotype percent effect: 3.97
--
Sequence code: AAGUGUGCAGGGCACUGGU [hsa-miR-648]
Unit spec: %
5+ nucleoli phenotype percent effect: -33.3

Consider the sequence UCACUCUCACCUUGCUUUGC [hsa-miR-4639-3p] and give its measured 5+ nucleoli phenotype percent effect. 3.2

Consider the sequence CCUAUUCUUGAUUACUUGUUUC [hsa-miR-26a-2-3p] and give its measured 5+ nucleoli phenotype percent effect. 2.15

Consider the sequence ACGGGCAGGGCAGUGCACCCUG [hsa-miR-7112-5p] and give its measured 5+ nucleoli phenotype percent effect. 2.37

Consider the sequence CCAGUUUUCCCAGGAUU [hsa-miR-4328] and give its measured 5+ nucleoli phenotype percent effect. 62.6
